target_or_system: MAO-A (Rattus norvegicus)
Construct: The MAO enzyme source was a homogenate of rat brain in 0.3 M sucrose 1:20 w/v; from tissue; host or cells: rat brain homogenate
Sequence (P21396 1-526): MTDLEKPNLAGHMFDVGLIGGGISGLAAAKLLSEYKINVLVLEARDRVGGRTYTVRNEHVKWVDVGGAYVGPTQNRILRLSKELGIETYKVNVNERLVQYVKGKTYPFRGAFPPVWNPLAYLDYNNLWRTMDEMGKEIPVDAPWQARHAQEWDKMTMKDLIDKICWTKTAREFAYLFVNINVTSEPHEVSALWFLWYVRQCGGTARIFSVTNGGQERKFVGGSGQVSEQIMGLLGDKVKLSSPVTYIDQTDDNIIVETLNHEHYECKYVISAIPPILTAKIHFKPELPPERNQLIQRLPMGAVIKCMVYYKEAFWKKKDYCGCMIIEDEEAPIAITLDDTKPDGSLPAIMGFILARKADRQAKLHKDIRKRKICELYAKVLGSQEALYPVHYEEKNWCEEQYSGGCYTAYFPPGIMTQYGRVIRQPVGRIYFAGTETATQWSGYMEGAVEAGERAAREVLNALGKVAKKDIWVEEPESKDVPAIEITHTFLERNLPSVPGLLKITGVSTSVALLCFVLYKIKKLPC
assay_protocol: Inhibition of MAO activity in vitro (5-HT as substrate)
Type: biochemical
cond: rat brain homogenate, 60 min pre-incubation at 37° C., 14C 5-HT substrate; read-out: In vitro IC50 A
pIC50: −log10 of the molar value. Counter-ions that a name gives are not always drawn.
Quick reference for pIC50 among some compounds
measurement_kind: pIC50

C#CCN(C)C1CCc2ccc(OC(=O)c3ccccc3)cc2C1 (racemic) [Cmpd 124, Hcl]: 5.92
C#CCN(C)[C@H]1CCc2ccc(OC(=O)C(C)(C)C)cc21 [Cmpd 129]: 5.60
C#CCN(C)C1CCc2ccc(OC(=O)N(C)CCC)cc21 (stereo not shown) [Cmpd 143]: 5.25
C#CCN[C@@H]1CCc2ccc(OC(=O)N(C)CC)cc21 [Cmpd 147]: 3.26

###

target_or_system: MAO-B (Rattus norvegicus, UniProt P19643)
Construct: The MAO enzyme source was a homogenate of rat brain in 0.3 M sucrose 1:20 w/v; from tissue; host or cells: rat brain homogenate
Sequence (P19643 whole entry): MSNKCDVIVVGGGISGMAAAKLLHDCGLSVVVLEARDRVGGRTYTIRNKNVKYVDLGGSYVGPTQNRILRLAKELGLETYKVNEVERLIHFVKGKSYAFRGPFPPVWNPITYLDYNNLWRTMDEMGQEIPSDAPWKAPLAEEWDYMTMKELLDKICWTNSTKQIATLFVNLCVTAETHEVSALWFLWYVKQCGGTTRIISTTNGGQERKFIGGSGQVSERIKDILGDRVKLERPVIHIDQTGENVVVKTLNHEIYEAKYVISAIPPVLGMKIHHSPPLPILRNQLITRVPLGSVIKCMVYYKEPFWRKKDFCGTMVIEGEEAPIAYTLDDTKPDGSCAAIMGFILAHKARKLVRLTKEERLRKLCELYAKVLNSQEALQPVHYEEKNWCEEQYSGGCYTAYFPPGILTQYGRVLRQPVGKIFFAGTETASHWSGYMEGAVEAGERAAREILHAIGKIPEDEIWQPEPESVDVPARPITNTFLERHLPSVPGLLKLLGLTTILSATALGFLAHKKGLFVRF
assay_protocol: Inhibition of MAO activity in vitro (PEA as substrate)
Assay type: biochemical
cond: rat brain homogenate, 60 min pre-incubation at 37° C., 14C PEA substrate; read-out: In vitro IC50 B
measurement_kind: IC50 (µM)

C#CCN(C)C1CCc2c(OC(C)=O)cccc21 (racemic): 0.11
C#CCN(C)C1CCc2cccc(OC(=O)N(C)CC)c21 (stereo not shown): 100
C#CCN(C)[C@H]1CCc2ccc(OC(=O)C(C)(C)C)cc21: 17
C#CCN(C)[C@@H]1CCc2ccc(OC(=O)c3c(OC)cccc3OC)cc21: 5.9
C#CCN(C)C1CCc2c(O)cccc21 (racemic): 0.07
C#CCN(C)C1CCc2ccc(O)cc2C1 (racemic): 0.48
C#CCNC1CCc2ccc(OC(=O)N(C)CC)cc2C1 (stereo not shown): 100
C#CCN(C)[C@@H]1CCc2ccc(OC(=O)C(C)(C)C)cc21: 2.5
C#CCN(C)C1CCc2c(OC(=O)N(C)CC)cccc21 (stereo not shown): 4

Cited source for all entries: patent US20040010038A1
